Hey, just so you know, these numbers are from patent US20230131402A1.

Item-by-item account of Emax
- experimental_system: NMDAR2A (Homo sapiens)
- Construct: expressed in transfected cells; host or cells: HEK cells (membrane extract)
- experiment_notes: [3H]MK-801 binding, NMDAR2A expressing HEK cell membranes
- Assay type: biochemical
- condition_label: 50 μM glutamate, read-out: NMDAR2A A: % maximal [3H]MK-801 binding relative to 1 mM glycine
assay_metric: Emax

[[record]]
molecule = "CN1CCN(Cc2ccccc2)C2(CCNC2=O)C1 (stereo not shown) [ES-315]"
assay_metric = "Emax"
reported_value = "< 100%"

[[record]]
molecule = "CC(C)(C)OC(=O)N1CCNC2(CNC2=O)C1 (single isomer, unassigned) [EB-1]"
assay_metric = "Emax"
reported_value = "< 100%"

[[record]]
molecule = "C[C@@H](O)[C@H](N)C(=O)N1CCNC2(CNC2=O)C1 (single isomer, unassigned) [EK-2]"
assay_metric = "Emax"
reported_value = "< 100%"

[[record]]
molecule = "CN1CCNC2(CNC2=O)C1 (stereo not shown) [EH-1]"
assay_metric = "Emax"
reported_value = "< 100%"

[[record]]
molecule = "C[C@@H](O)[C@H](N)C(=O)N1CCNC2(CCNC2=O)C1 (stereo partly shown) [ES-335]"
assay_metric = "Emax"
reported_value = "< 100%"

[[record]]
molecule = "C[C@@H](O)[C@H](N)C(=O)N1CCN(C(=O)OC(C)(C)C)CC12CNC2=O (single isomer, unassigned) [EC-1]"
assay_metric = "Emax"
reported_value = "< 100%"

[[record]]
molecule = "C[C@@H](O)[C@H](N)C(=O)N1CCN(C(=O)OC(C)(C)C)CC12CNC2=O (stereo partly shown) [EC-2]"
assay_metric = "Emax"
reported_value = "< 100%"


###

Item-by-item account of clearance
- experiment_notes: IV pharmacokinetics
- Type: in vivo, Sprague Dawley rats
- condition_label: Sprague Dawley, rat, in vivo, iv, 2 mg/kg, normal saline (compounds marked * in 1% NMP and 99% normal saline)
assay_metric: clearance (mL/min/kg)

[[record]]
compound = "C[C@@H](O)[C@H](N)C(=O)N1CCN(C)CC12CNC2=O (single isomer, unassigned) [EJ-1]"
result_units = "mL/min/kg"
reported_value = 10.5

[[record]]
compound = "CC(=O)N1CCN(Cc2ccccc2)C2(CCNC2=O)C1 (stereo not drawn) [ES-319]"
result_units = "mL/min/kg"
reported_value = 18.2

[[record]]
compound = "C[C@@H](O)[C@H](N)C(=O)N1CCNC2(CNC2=O)C1 (single isomer, unassigned) [EK-1]"
result_units = "mL/min/kg"
reported_value = 15

[[record]]
compound = "C[C@@H](O)[C@H](N)C(=O)N1CCNC2(CCNC2=O)C1 (stereo partly drawn) [ES-336]"
result_units = "mL/min/kg"
reported_value = 6.84

[[record]]
compound = "CN1CCN(Cc2ccccc2)C2(CCNC2=O)C1 (stereo not drawn) [ES-316]"
result_units = "mL/min/kg"
reported_value = 30.6

[[record]]
compound = "CN1CCN(C(=O)OC(C)(C)C)CC12CN(CC(N)=O)C2=O (stereo not drawn) [ER-117]"
result_units = "mL/min/kg"
reported_value = 57.2


###

- experimental_system: NMDAR2A (Homo sapiens, UniProt Q12879)
- Construct: expressed in transfected cells; host or cells: HEK cells (membrane extract)
- Sequence (Q12879 23-1464, species assumed, other chains not shown): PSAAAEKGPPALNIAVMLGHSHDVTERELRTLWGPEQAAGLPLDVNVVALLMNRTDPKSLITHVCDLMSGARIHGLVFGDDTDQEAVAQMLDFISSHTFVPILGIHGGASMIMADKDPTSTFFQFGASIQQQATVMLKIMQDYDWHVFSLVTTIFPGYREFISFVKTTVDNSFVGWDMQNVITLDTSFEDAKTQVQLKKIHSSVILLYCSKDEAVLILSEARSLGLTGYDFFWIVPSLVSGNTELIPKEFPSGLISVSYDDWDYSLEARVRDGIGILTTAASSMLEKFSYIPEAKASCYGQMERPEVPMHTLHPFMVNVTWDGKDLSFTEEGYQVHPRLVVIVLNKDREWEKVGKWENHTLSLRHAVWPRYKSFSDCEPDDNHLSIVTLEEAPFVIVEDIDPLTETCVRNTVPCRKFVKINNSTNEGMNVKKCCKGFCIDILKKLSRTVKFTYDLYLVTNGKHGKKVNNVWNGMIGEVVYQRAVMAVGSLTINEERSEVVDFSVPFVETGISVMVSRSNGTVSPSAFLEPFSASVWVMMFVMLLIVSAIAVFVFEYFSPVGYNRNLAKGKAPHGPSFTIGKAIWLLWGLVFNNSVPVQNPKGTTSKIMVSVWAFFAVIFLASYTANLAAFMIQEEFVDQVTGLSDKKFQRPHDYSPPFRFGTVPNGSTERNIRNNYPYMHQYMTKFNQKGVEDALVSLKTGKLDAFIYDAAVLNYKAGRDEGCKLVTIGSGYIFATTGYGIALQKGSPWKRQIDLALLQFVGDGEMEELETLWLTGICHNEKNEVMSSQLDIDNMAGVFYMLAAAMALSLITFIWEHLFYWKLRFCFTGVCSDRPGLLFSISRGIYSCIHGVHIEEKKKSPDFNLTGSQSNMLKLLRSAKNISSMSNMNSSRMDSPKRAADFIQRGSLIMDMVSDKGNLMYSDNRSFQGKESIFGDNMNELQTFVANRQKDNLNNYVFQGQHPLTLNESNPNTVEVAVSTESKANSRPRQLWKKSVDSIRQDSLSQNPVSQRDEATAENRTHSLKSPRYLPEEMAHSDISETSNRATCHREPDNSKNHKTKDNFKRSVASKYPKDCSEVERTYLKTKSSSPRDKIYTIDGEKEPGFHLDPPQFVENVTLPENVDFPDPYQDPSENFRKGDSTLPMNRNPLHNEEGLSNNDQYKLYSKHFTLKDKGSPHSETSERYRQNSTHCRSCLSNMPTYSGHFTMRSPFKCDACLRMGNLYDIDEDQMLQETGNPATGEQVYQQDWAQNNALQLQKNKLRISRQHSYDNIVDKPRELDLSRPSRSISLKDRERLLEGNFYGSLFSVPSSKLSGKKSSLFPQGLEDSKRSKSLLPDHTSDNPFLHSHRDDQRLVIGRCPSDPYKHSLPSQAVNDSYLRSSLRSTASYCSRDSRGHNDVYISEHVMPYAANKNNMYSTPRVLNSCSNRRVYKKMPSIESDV
- experiment_notes: [3H]MK-801 binding, NMDAR2A expressing HEK cell membranes
- Assay type: biochemical
- condition_label: 50 μM glutamate
assay_metric: NMDAR2A A: % maximal [3H]MK-801 binding relative to 1 mM glycine

[[record]]
compound = "CC(C)C(=O)N1CCN(Cc2ccccc2)C2(CCNC2=O)C1 (centres unmarked) [ES-321]"
experimental_system = "NMDAR2A (Homo sapiens, UniProt Q12879)"
reported_value = "+ (<100%=+)"

[[record]]
compound = "CN1CCN(Cc2ccccc2)C2(CCNC2=O)C1 (centres unmarked)"
experimental_system = "NMDAR2A (Homo sapiens, UniProt Q12879)"
reported_value = "+ (<100%=+)"

[[record]]
compound = "CN1CCN(Cc2ccccc2)C2(CNC2=O)C1 (single isomer, unassigned) [EG-1]"
experimental_system = "NMDAR2A (Homo sapiens, UniProt Q12879)"
reported_value = "+ (<100%=+)"

[[record]]
compound = "O=C1NCC12CNCCN2Cc1ccccc1 (single isomer, unassigned)"
experimental_system = "NMDAR2A (Homo sapiens, UniProt Q12879)"
reported_value = "− (−=0)"

[[record]]
compound = "O=C1NCCC12CNCCN2 (centres unmarked)"
experimental_system = "NMDAR2A (Homo sapiens, UniProt Q12879)"
reported_value = "− (−=0)"

